- EXPERIMENTAL_TARGET: Acetylcholinesterase (Rattus norvegicus, UniProt P37136)
- Sequence (P37136 whole entry): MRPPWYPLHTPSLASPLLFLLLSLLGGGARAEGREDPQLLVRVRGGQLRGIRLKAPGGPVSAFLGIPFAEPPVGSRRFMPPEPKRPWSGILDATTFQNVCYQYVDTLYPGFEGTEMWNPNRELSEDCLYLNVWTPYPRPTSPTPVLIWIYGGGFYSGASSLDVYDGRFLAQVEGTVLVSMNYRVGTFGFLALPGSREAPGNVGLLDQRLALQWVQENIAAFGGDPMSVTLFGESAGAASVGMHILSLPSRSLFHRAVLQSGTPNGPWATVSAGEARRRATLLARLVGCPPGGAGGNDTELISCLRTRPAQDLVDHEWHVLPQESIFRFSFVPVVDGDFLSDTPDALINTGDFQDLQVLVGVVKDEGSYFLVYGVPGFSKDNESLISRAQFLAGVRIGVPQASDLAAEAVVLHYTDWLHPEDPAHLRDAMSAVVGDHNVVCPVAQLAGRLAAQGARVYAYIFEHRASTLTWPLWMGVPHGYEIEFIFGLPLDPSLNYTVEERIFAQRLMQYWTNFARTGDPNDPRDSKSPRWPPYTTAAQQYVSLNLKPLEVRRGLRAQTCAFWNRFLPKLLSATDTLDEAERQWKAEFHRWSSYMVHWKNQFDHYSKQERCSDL
Labels assigned by IC50 range: class 1 = under 8 nM, class 2 = from 8 nM up to 200 nM, class 3 = 200 nM and over

q: Place this compound in its band: CN1CC[C@@]2(C)c3cc(OC(=O)NC4CCCCC4)ccc3N(C)[C@@H]12
a: class 2

q: Class for Cc1c(Cl)cccc1NC(=O)Oc1ccc2c(c1)[C@]1(C)CCN(C)[C@@H]1N2C ?
a: class 1

q: In plain terms, what class is CN1CC[C@@]2(C)c3cc(OC(=O)Nc4ccccc4Cl)ccc3N(C)[C@@H]12 ?
a: class 3

q: Place this compound in its band: CC(C)c1cccc(C(C)C)c1NC(=O)Oc1ccc2c(c1)[C@]1(C)CCN(C)[C@@H]1N2C
a: class 3

q: Please let me know in which category the item CN1CC[C@@]2(C)c3cc(OC(=O)Nc4cccc5ccccc45)ccc3N(C)[C@@H]12 belongs.
a: class 1

q: GET /class?item= COc1ccc(NC(=O)Oc2ccc3c(c2)[C@]2(C)CCN(C)[C@@H]2N3C)cc1
a: class 2

q: Could you tell me which band CN1CC[C@@]2(C)c3cc(OC(=O)Nc4cccc(Cl)c4Cl)ccc3N(C)[C@@H]12 belongs to?
a: class 2

q: Form: Item = CN1CC[C@@]2(C)c3cc(OC(=O)Nc4ccccc4)ccc3N(C)[C@@H]12 ; Class = ?
a: class 2

q: Assign a bin to Cc1ccc(NC(=O)Oc2ccc3c(c2)[C@]2(C)CCN(C)[C@@H]2N3C)cc1Cl
a: class 1

q: Where would CN1CC[C@@]2(C)c3cc(OC(=O)Nc4ccc(Cl)cc4)ccc3N(C)[C@@H]12 land among the classes by reported IC50?
a: class 3

q: Class label required: CN1CC[C@@]2(C)c3cc(OC(=O)Nc4ccc(Br)cc4)ccc3N(C)[C@@H]12
a: class 2

q: Which bin should I file CN1CC[C@@]2(C)c3cc(OC(=O)Nc4ccccc4Br)ccc3N(C)[C@@H]12 under?
a: class 2

====

- EXPERIMENTAL_TARGET: Butyrylcholinesterase (Rattus norvegicus, UniProt Q9JKC1)
- Sequence (Q9JKC1 whole entry): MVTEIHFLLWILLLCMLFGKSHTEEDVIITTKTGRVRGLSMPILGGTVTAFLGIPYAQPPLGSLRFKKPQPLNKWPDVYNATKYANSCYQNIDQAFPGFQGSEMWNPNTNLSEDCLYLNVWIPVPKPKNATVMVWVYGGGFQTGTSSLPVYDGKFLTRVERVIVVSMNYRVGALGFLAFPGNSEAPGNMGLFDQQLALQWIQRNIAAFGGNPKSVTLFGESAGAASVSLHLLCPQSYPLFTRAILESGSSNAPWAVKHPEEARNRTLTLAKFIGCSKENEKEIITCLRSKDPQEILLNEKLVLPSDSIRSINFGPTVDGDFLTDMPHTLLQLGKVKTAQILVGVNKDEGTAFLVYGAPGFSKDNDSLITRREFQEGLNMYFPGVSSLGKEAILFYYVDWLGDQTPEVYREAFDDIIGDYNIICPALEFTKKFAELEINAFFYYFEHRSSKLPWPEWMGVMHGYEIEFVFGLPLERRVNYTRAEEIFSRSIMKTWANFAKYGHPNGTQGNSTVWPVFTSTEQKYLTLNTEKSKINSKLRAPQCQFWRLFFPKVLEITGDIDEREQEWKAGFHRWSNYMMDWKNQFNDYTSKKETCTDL
- EXPERIMENT_DESCRIPTION: Inhibition of rat plasma BChE by Ellman's method
- Type: cell-free
ASSAY_READOUT: pIC50
pIC50 is a log-scale quantity: -log10 of the concentration expressed in molar.

Record Cc1c(Cl)cccc1NC(=O)Oc1ccc2c(c1)[C@]1(C)CCN(C)[C@@H]1N2C . Reported pIC50: 6.95

So, CN1CC[C@@]2(C)c3cc(OC(=O)Nc4ccc(Cl)cc4)ccc3N(C)[C@@H]12 ? Its pIC50 was 7.21

// field: pIC50; key: CN1CC[C@@]2(C)c3cc(OC(=O)NC4CCCCC4)ccc3N(C)[C@@H]12 ; value = 5.85

For CN1CC[C@@]2(C)c3cc(OC(=O)Nc4ccccc4)ccc3N(C)[C@@H]12 [PHENSERINE] the compound record lists pIC50 as 6.98
